Hey, just so you know, these numbers are from PubChem BioAssay (NCI).

System: HOP-62 NSCLC
Protocol: NCI tumour cell line growth inhibition, 48 h

Compound: Cc1ccccc1-n1c(=O)nc2n(-c3ccc(C(C)(C)C)cc3)c3ccccc3cc-2c1=O
TGI: 39.7 µM

Compound: CC(C)OC(=O)NNc1c(Cl)cc(Cl)cc1Cl
TGI: > 100 µM

Compound: COc1ccc(-n2c(C)nc3ccc(NC4OCC(OC(C)=O)C(OC(C)=O)C4OC(C)=O)cc3c2=O)cc1 (stereo not given)
TGI: > 100 µM

Compound: NNC(=S)N/N=C(\c1nc2ccc(Cl)cc2[nH]c1=O)C(O)c1cccc([N+](=O)[O-])c1 (stereo not given)
TGI: > 55.8 µM

Compound: COc1ccc(/C(=N/O)c2cc(F)c(F)c(OC)c2F)cc1O
TGI: > 100 µM

Compound: COc1ccc(C2=NC(CO)[C@H](c3ccccc3)O2)cc1OC (stereo not given in full)
TGI: > 100 µM

Compound: O=C1C=C(c2ccccc2)NC1(c1ccccc1)c1cc(-c2ccccc2)[nH]c1-c1ccccc1 (stereo not given)
TGI: 19 µM

Compound: CCc1n[nH]c(=O)n1N
TGI: > 100 µM

Compound: C=C1C(=O)OC2/C=C(\CO)C3OC3C3OC3(C)CC(OC(=O)/C(=C/C)COC(C)=O)C12 (stereo not given)
TGI: 40.4 µM

Compound: CCC(=O)NC(NNS(=O)(=O)c1ccc(C)cc1)(C(F)(F)F)C(F)(F)F
TGI: > 100 µM

---

As shown below, each of these compounds has a reported TGI value.
Test system: HCC-2998 colon
Protocol: NCI tumour cell line growth inhibition, 48 h

Compound: O=C1Sc2sc(=S)sc2SC1c1ccccc1 (stereo not given)
Measurement qualifier: >
TGI [µM]: 100

Compound: CCOC(=O)/C(=C\n1c(=O)sc2ccccc21)C(=O)c1ccccc1
Measurement qualifier: >
TGI [µM]: 100

Compound: C=C(Cl)C(Cl)(CBr)CCCC(C)C (stereo not given)
Measurement qualifier: =
TGI [µM]: 34.1

Compound: COc1ccc(C(=O)c2no[n+]([O-])c2C(=O)c2ccc(OC)cc2)cc1
Measurement qualifier: =
TGI [µM]: 31.6

Compound: O=C1C2C3C=CC(C2C(=O)N1CN1CCOCC1)C1C2C(=O)N(CN4CCOCC4)C(=O)C2C31 (stereo not given)
Measurement qualifier: >
TGI [µM]: 61.2

Compound: CCOC(=O)c1c(C)n(Cc2ccc(Cl)cc2Cl)c2c1cc(O)c1[nH]c(Cc3ccccc3)nc12
Measurement qualifier: =
TGI [µM]: 5.23

Compound: Cc1cc(O)c(C(O)c2ccccn2)cc1O (stereo not given)
Measurement qualifier: =
TGI [µM]: 70.3

Compound: COc1ccc(/C=C2\CC3C4CC=C5C[C@@H](N6CCCC6)CC[C@]5(C)C4CC[C@]3(C)[C@H]2O)cc1OC (stereo not given in full)
Measurement qualifier: =
TGI [µM]: 11.7

Compound: C[C@H]1CCC/C=C/[C@@H]2C[C@H](O)C[C@H]2[C@H](O)C(O)C(O)C(=O)O1 (stereo not given in full)
Measurement qualifier: >
TGI [µM]: 22.4

Compound: Cc1nsc2cc(Cl)n(C)c(=O)c12
Measurement qualifier: >
TGI [µM]: 100

Compound: O=C(/C=C/c1cccc(Cl)c1)c1ccccc1
Measurement qualifier: =
TGI [µM]: 26.7

Compound: COc1cccc2c1C(=O)c1c(O)c3c(c(O)c1C2=O)C[C@@](O)(C(=O)CO)C[C@@H]3OC1CC2C(OCN2CN2COC3C(C)OC(O[C@H]4C[C@](O)(C(=O)CO)Cc5c(O)c6c(c(O)c54)C(=O)c4c(OC)cccc4C6=O)CC32)C(C)O1 (stereo not given in full)
Measurement qualifier: =
TGI [µM]: 0.0441

Compound: O=C(O)C(Cc1ccc(O)cc1)N=Cc1nc(-c2ccccc2)oc1O (stereo not given)
Measurement qualifier: >
TGI [µM]: 100

Compound: CCCCCCCCC#CCCCCCCC(F)C(=O)O (stereo not given)
Measurement qualifier: >
TGI [µM]: 100

Compound: CSc1cc(Cl)c(C(=O)Nc2ccccc2)cc1S(=O)(=O)n1cc[nH]c1=O
Measurement qualifier: >
TGI [µM]: 100

Compound: NNC(=S)N/N=C(\c1nc2ccc(Cl)cc2[nH]c1=O)C(O)c1cccc([N+](=O)[O-])c1 (stereo not given)
Measurement qualifier: >
TGI [µM]: 100

Compound: N#C/C(=C\c1ccccn1)c1nc2ccccc2o1
Measurement qualifier: =
TGI [µM]: 50.2

Compound: COc1ccc2[nH]c(=O)cc(C)c2c1[N+](=O)[O-]
Measurement qualifier: >
TGI [µM]: 100

Compound: COC(=O)C(C(=O)C(=O)Nc1nc2ccc(OC)cc2s1)c1cnc2ccccc2n1 (stereo not given)
Measurement qualifier: >
TGI [µM]: 100

Compound: COc1cccc(C2c3cc4c(cc3OC(N3CCCC3)C2c2ccccc2)OCO4)c1O (stereo not given)
Measurement qualifier: =
TGI [µM]: 23.9
